# Tested on: OVCAR-8 ovarian
# assay.remarks: NCI-60 one-dose screen, 48 h (100 = growth as untreated, 0 = no growth, -100 = all killed)
# details: 10 µM unless noted
About 83,000 compounds went through this panel and 20% of them were active in at least one assay; those are over-represented in the sample as a whole.
Please respond with reported growth for every item in the list.
Numbers only, in %.

Solved cases (8 shown):
| compound.smiles | growth (%) |
| --- | --- |
| Cc1cc(N2CCCC2)nc(N(CCCNc2ccnc3cc(Cl)ccc23)Cc2ccccn2)n1 | 49.2 |
| Cc1[nH]c(C(=O)Nc2ccc(C(=O)NCCN)cc2OC(C)C)c(Cl)c1Cl | 9.08 |
| COc1cccc(-c2nc(-c3ccc(NC(=O)OC(C)C)cc3)[nH]c2-c2ccnc(Br)c2)c1 | 27.3 |
| FC(F)(F)c1cc(Nc2ccc3c(OCCCN4CCOCC4)cccc3n2)ccc1Cl | 75.5 |
| COc1cc(C(=O)N/N=C/c2cc3cc(OCc4ccccc4)ccc3nc2OC)cc(OC)c1OC | 68.4 |
| CCC(C)(c1cc(C(C)(C)C)c(O)c(C(C)(C)C)c1)c1cc(C(C)(C)C)c(O)c(C(C)(C)C)c1 | 102 |
| CCc1nnc(NC(=O)c2nnn(-c3ccccc3)c2-c2ccco2)s1 | 103 |
| CSc1ccc2c(c1)c(CCN)c(C)n2Cc1ccc(Cl)c(Cl)c1 | -60.8 |

// each compound listed below needs its growth
1. O=c1c2cccc(Cl)c2sc2c(NCCCNCCO)nc3ccccc3c12
2. N#Cc1cccc(NC(=O)c2cc(-c3ccc(F)cc3F)ccc2O)c1

A:
1: 27; 2: 16.8

* * *

For each of the compounds below, state its growth.
# Tested on: RXF 393 renal
# assay.remarks: NCI-60 one-dose screen, 48 h (100 = growth as untreated, 0 = no growth, -100 = all killed)
# details: 10 µM unless noted
About 83,000 compounds went through this panel and 20% of them were active in at least one assay; those are over-represented in the sample as a whole.
Numbers only, in %.

These solved cases illustrate the format of a correct answer.
| compound.smiles | measurement.units | growth |
| --- | --- | --- |
| Cc1ccc(-c2nn(C)c(=O)c3noc(-c4ccc(C)cc4)c23)cc1 | % | 13.6 |
| COC(=O)[C@H](C)NC(=O)NC(=O)NC(=O)CI | % | 59.1 |
| Cc1cc2nc3ccc(N=Nc4ccc(N(C)C)cc4)cc3n(-c3ccccc3)c-2cc1=N | % | -87.8 |
| CCN(CC)CCNC(=O)c1cn2ncnc(Oc3ccc(NC(=O)Nc4ccc(Cl)c(C(F)(F)F)c4)cc3)c2c1C | % | -36.3 |

Next compound, growth to be filled in.
Q: Data request, read-out growth, for `COc1ccc(-c2[nH]ncc2-c2cc3c(c(OC)c2)OCC(=O)N3)cc1`
A: -35.1

* * *

# Tested on: MCF7 breast
# assay.remarks: NCI-60 one-dose screen, 48 h (100 = growth as untreated, 0 = no growth, -100 = all killed)
# details: 10 µM unless noted
The panel holds about 83,000 compounds, 20% with a hit somewhere; the sample as a whole holds those more often.
Please go through the items and note down their growth.
One number for each entry, in %.

Batch request: growth per item, same order as input.
1. CC([C@H]1CCC2C3CCC4C[C@@H](NC=O)CC[C@]4(C)C3CC[C@@]21C)N(C)C (stereo not given in full)
2. COc1cc(C(=O)/C=C/c2sc(Cl)nc2Cl)cc(OC)c1OC
3. COc1cc(C(=O)N/N=C/c2cc3cc(OCc4ccccc4)ccc3nc2OC)cc(OC)c1OC
4. CCOC(=O)C1=C(N)Oc2c(sc3c(C)cccc23)C1c1ccc(Cl)cc1 (stereo not given)
5. COc1ccc2c(c1OC)C(=O)O[C@H]2[C@H]1c2c(cc3c(c2OC)OCO3)CCN1C
6. CCCC1CCC(O)(C(C)(O)C(=O)NC2C(=O)N3NCCCC3C(=O)N(O)C(C)C(=O)N3NCCCC3C(=O)N3NCC(O)CC3C(=O)NC(C)C(=O)OC2C(C)C)OC1CC (stereo not given)
7. COc1ccc(-c2cc3c4c(nc5ccccc5c4c2)CC(c2cc(OC)c(OC)c(OC)c2)O3)cc1 (stereo not given)

A:
[-23.1, -68.1, 78.4, 8.74, 93.9, -83, 61.3]

For every record below, what is its growth?
1. OC(COc1ccccc1Cl)CN1CCN(c2cccc(Cl)c2)CC1 (stereo not given)
2. CCCCCCCCCCCCCCCCCCOc1ccc(CC(=O)OCC[N+]2(C)CCCCC2)cc1
3. Cc1ccc(S(=O)(=O)Oc2ccc(NC(=O)c3ccc(Cl)cc3)cc2)cc1
4. O=C(S)CNC(=O)c1ccccc1
5. CN1CCN(Cc2ccc(NC(=O)c3ccc(C(C)(C)C)c(C#Cc4cnc5cccnn45)c3)cc2C(F)(F)F)CC1
6. CCS(=O)(=O)c1ncnc2nc[nH]c12

A:
93.8
91
91.8
98.7
-74.3
89.2

Where do the numbers come from? From PubChem BioAssay (NCI).
